SYSTEM: hKv3.1b (Homo sapiens, UniProt P48547)
Construct: expressed in transfected cells
Sequence (P48547 1-585 isoform P48547-2): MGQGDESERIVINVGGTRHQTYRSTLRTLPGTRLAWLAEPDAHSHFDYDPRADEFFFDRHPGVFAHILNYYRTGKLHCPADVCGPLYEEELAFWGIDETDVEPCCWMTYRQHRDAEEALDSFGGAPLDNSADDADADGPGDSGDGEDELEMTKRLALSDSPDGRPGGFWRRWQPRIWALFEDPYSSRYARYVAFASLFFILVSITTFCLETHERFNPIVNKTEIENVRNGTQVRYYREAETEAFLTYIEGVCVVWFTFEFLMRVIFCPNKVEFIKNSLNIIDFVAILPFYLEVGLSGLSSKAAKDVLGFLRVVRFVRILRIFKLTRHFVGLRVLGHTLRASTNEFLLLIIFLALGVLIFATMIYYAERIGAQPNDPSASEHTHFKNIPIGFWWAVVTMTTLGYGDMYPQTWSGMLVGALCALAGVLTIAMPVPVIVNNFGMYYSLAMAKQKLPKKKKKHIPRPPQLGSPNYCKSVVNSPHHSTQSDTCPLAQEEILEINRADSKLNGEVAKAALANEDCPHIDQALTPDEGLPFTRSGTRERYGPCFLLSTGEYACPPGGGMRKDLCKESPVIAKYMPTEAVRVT
TEST DESCRIPTION: Automated patch clamp (QPatch-16x) on HEK-293 cells stably expressing hKv3.1b
Format: cell-based
ASSAY SETUP: concentration needed to shift the activation threshold 5 mV
READOUT: ECdelta5 mV (nM)

| SMILES | SYSTEM | ECdelta5 mV / nM |
| --- | --- | --- |
| Cc1ccc(S(=O)(=O)n2ccc(C(=O)NCc3ccno3)c2)cc1 | hKv3.1b (Homo sapiens, UniProt P48547) | 2300 |
| O=C(NCc1cnccn1)c1ccn(S(=O)(=O)c2ccc(Cl)cc2)c1 | hKv3.1b (Homo sapiens, UniProt P48547) | 1000 |
| Cc1ccc(S(=O)(=O)n2ccc(C(=O)NCc3nc(C)cs3)c2)cc1 | hKv3.1b (Homo sapiens, UniProt P48547) | 1100 |
| Cc1ccc(S(=O)(=O)n2ccc(C(=O)NCc3coc(C)n3)c2)cc1 | hKv3.1b (Homo sapiens, UniProt P48547) | 2300 |
| CNc1cnc(CNC(=O)c2ccn(S(=O)(=O)c3ccc(C)cc3F)c2)cn1 | hKv3.1b (Homo sapiens, UniProt P48547) | 550 |

a = Cc1ccc(S(=O)(=O)n2ccc(C(=O)NCc3cnc(C)o3)c2)cc1
b = Cc1cccc(S(=O)(=O)n2ccc(C(=O)NCc3ccn(C)n3)c2)c1
Inquiry: Between a and b , which one shows the smaller ECdelta5 mV number? Give the label of your selection.
Reply text: b

P = Cn1ccc(CNC(=O)c2ccn(S(=O)(=O)c3ccccc3)c2)n1
Q = Cc1ccc(S(=O)(=O)n2ccc(C(=O)NCc3cn(C)cn3)c2)cc1
Inquiry: Which record would sort first by descending ECdelta5 mV, P or Q ? Answer by stating the label of the chosen item.
Reply text: P
(P: 4100 nM, Q: 2000 nM)

* * *

TEST DESCRIPTION: In vivo pharmacokinetic time profile in mice (plasma and brain)
Set-up: species or system mouse
ASSAY SETUP: male, C57, plasma; mouse, SC administration, dose 30 (mg/mg), vehicle 10% HP-betaCD (Table 7)
READOUT: Cmax (ng/mL)
Report the value in ng/mL with no unit label.

Inquiry: Consider the compound `Cc1ccc(S(=O)(=O)n2ccc(C(=O)NCc3ncco3)c2)cc1` . State its measured Cmax.
Reply text: 22000

* * *

TEST DESCRIPTION: In vivo pharmacokinetic time profile in mice (plasma and brain)
Design: species or system mouse
ASSAY SETUP: male, C57, plasma, 30 mg/kg; mouse, PO administration, dose 30 (mg/mg), vehicle 10% HP-betaCD
READOUT: Cmax (µg/mL)
Express it in µg/mL; write the number only.

Inquiry: Kindly indicate its recorded Cmax. Item: `Cc1cnc(CNC(=O)c2ccn(S(=O)(=O)c3ccc(F)cc3C)c2)cn1`
Reply text: 7.35

* * *

TEST DESCRIPTION: In vivo pharmacokinetic time profile in mice (plasma and brain)
Set-up: species or system mouse
ASSAY SETUP: male, C57, plasma, 10 mg/kg; mouse, SC administration, dose 10 (mg/mg); read-out: T½ (converted)
READOUT: half-life (h)
The response must be a number in h with no trailing unit.

Inquiry: Provide one value: measured half-life of `Cc1cnc(CNC(=O)c2ccn(S(=O)(=O)c3ccc(F)cc3C)c2)cn1`
Reply text: 1.3

* * *

Catalogue of IC50 readings, one per entry.
SYSTEM: hNav1.1 (Homo sapiens, UniProt P35498)
TEST DESCRIPTION: Off-target Nav1.1 electrophysiology (Qpatch), multiple state readouts
ASSAY SETUP: inhibition; resting, use-dependent and inactivated state readouts; up to 30 μM

| MOLECULE | VALUE OBSERVED |
| --- | --- |
| Cc1cnc(CNC(=O)c2ccn(S(=O)(=O)c3ccc(F)cc3C)c2)cn1 [Compound 90] | > 30 µM |

Continue with the molecule presented below.
Inquiry: Output measured IC50 for this item: Cc1ccc(S(=O)(=O)n2ccc(C(=O)NCc3ncco3)c2)cc1 [Compound 86]
Reply text: > 30 µM

* * *

SYSTEM: hKv3.1b (Homo sapiens)
Construct: expressed in transfected cells
TEST DESCRIPTION: Automated patch clamp (QPatch-16x) on HEK-293 cells stably expressing hKv3.1b
Type: cell-based
ASSAY SETUP: maximum absolute hyperpolarizing shift of activation threshold at tested concentrations 0.37-30 μM
Experimental: HEK-293 cells stably expressing hKv3.1b were used for the experiments. Cells were cultured in DMEM medium supplemented with 10% Fetal Bovine Serum, 100 ug/mL Geneticidin and 100 u/mL Penicillin/Streptomycin (all from Gibco). Cells were grown to 80-90% confluency at 37° C. and 5% CO2. […] Leak subtraction protocol was applied at −33% of the sweep amplitude, and serial resistance values were constantly monitored. […]
READOUT: Threshold Shift (mV)

Sample records with Threshold Shift:
| SMILES | U | Threshold Shift |
| --- | --- | --- |
| Cc1ccc(CNC(=O)c2ccn(S(=O)(=O)c3ccc(F)cc3)c2)cn1 | mV | 18 |
| COc1ccc(S(=O)(=O)n2ccc(C(=O)NCc3ccc(C)cn3)c2)cc1 | mV | 17 |
| COc1ccc(S(=O)(=O)n2ccc(C(=O)NCc3cc(C)no3)c2)cc1 | mV | 19 |

I = Cc1ccc(S(=O)(=O)n2ccc(C(=O)NCc3ccccn3)c2)cc1
II = Cc1ccc(S(=O)(=O)n2ccc(C(=O)NCc3ccn(C)n3)c2)cc1
Inquiry: Of I and II , whose reported Threshold Shift is the larger number? Could you answer with the label of the item you picked?
Reply text: II

* * *

TEST DESCRIPTION: In vivo pharmacokinetic time profile in mice (plasma and brain)
Parameters: species or system mouse
ASSAY SETUP: male, C57, plasma, 3 mg/kg; mouse, SC administration, dose 3 (mg/mg), vehicle 10% HP-betaCD
READOUT: Cmax (ng/mL)
Give the value, in units of ng/mL, as a plain number.

Inquiry: Item `Cc1cnc(CNC(=O)c2ccn(S(=O)(=O)c3ccc(F)cc3C)c2)cn1` : provide Cmax
Reply text: 1130

* * *

TEST DESCRIPTION: In vivo pharmacokinetic time profile in rats (plasma and brain)
ASSAY SETUP: male, Sprague Dawley, plasma; rat, PO administration, dose 3 (mg/mg), vehicle 10% HP-betaCD
READOUT: Cmax (ng/mL)
Output spec: scalar in ng/mL, unitless text.

Inquiry: Give a short answer stating reported Cmax for Cc1cnc(CNC(=O)c2ccn(S(=O)(=O)c3ccc(F)cc3C)c2)cn1 [Compound 90] .
Reply text: 627

* * *

SYSTEM: hKv3.1b (Homo sapiens, UniProt P48547)
Construct: expressed in transfected cells
TEST DESCRIPTION: Automated patch clamp (QPatch-16x) on HEK-293 cells stably expressing hKv3.1b
Assay type: cell-based
ASSAY SETUP: maximum absolute hyperpolarizing shift of activation threshold at tested concentrations 0.37-30 μM
READOUT: Threshold Shift (mV)

Observe how each entry below is paired with its result.
| SMILES | Threshold Shift [mV] |
| --- | --- |
| Cc1cnc(CNC(=O)c2ccn(S(=O)(=O)c3cc(C)c(F)c(C)c3)c2)cn1 | 15 |
| COc1ccc(S(=O)(=O)n2ccc(C(=O)NCc3cnc(C)cn3)c2)c(Cl)c1 | 31 |
| Cc1ccc(S(=O)(=O)n2cc(C(=O)NCc3cnc(C)cn3)cc2F)cc1 | 15 |
| Cc1ccc(S(=O)(=O)n2ccc(C(=O)NCc3cncnc3)c2)cc1 | 22 |
| Cc1ccc(S(=O)(=O)n2ccc(C(=O)NCc3ncco3)c2)cc1 | 17 |

P = Cc1ccc(S(=O)(=O)n2ccc(C(=O)NCc3ccc(C)nc3)c2)cc1
Q = COc1ccc(CNC(=O)c2ccn(S(=O)(=O)c3ccc(C)cc3)c2)nc1
R = Cc1ccc(S(=O)(=O)n2ccc(C(=O)NCc3ncc(C)o3)c2)cc1
Inquiry: Task field, ranking: reported Threshold Shift, descending order. Put the labels in the requested order and write them down.
Reply text: P, R, Q

The origin of these recorded values is patent US20200131156A1.
